Please go through the items and note down their SGF Half-life (t½).
test: Intact half-life during simulated gastric fluid (SGF) digestion; conditions: SGF pH 1.5, pepsin:polypeptide 1:20 w/w, 37° C.; intact protein
Numbers only, in s.

Check out these entries, answers already filled in.
Molecule	Measured number
SEQID-00346: nutritive polypeptide (protein, Arthrospira platensis NIES-39) MYYDADANLDLLAGKTIAIVGYGSQGHAHALNLKDSGMNVIVGLYPGSKSATKAKDAGLTVYPVDEAAKIADLIMILLPDEVQKTVYKNEIEPNLSEGKTLAFAHGFNIHFGQVVPPENVDVIMVAPKGPGHLVRRTYQEGQGVPCLFAVYQDASGQARDRAMAYAKGIGGTRGGILETTFREETETDLFGEQAVLCGGLSALIKAGFETLVEAGYQPELAYFECLHEVKLIVDLVVEGGLAQMRDSISNTAEYGDYTRGPRVITDATRAEMRKILKEIQTGQFAREFVLENQSGKAGFTAMRRQEAEHPIEEVGHDLRAMFSWLKKKA	12
SEQID-00102: nutritive polypeptide (protein, listed as Lactobacillus johnsonii) MTEEEIFNKIADMISERFSIDRDKITKDLNFQNDLDADSIDFVELVMDLEDTFGAEIPDDDAEKLQTVGEAVEYIKSHQN	36
SEQID-00598: nutritive polypeptide naturally produced in Flaxseed, recombinantly expressed in E. coli (protein, listed as Linum usitatissimum) MSRRCPGKNAWPELVGKSGNMAAATVERENRNVHAIVLKEGSAMTKDFRCDRVWVIVNDHGVVTSVPHIT	30
SEQID-00678 (BS): nutritive polypeptide (protein, listed as Saccharomyces cerevisiae, source: /note="strain ATCC 204508 / S288c") MSSSESIRMVLIGPPGAGKGTQAPNLQERFHAAHLATGDMLKSQIAKGTQLGLEAKKIMDQGGLVSDDIMVNMIKDELTNNPACKNGFILDGFPRTIPQAEKLDQMLKEQGTPLEKAIELKVDDELLVARITGRLIHPASGRSYHKIFNPPKEDMKDDVTGEALVQRSDDNADALKKRLAAYHAQTEPIVDFYKKTGIWAGVDASQPPATVWADILNKLGKD	12
SEQID-00338 (BS): nutritive polypeptide (protein, listed as Saccharomyces cerevisiae, source: /note="strain ATCC 204508 / S288c") MSSSESIRMVLIGPPGAGKGTQAPNLQERFHAAHLATGDMLRSQIAKGTQLGLEAKKIMDQGGLVSDDIMVNMIKDELTNNPACKNGFILDGFPRTIPQAEKLDQMLKEQGTPLEKAIELKVDDELLVARITGRLIHPASGRSYHKIFNPPKEDMKDDVTGEALVQRSDDNADALKKRLAAYHAQTEPIVDFYKKTGIWAGVDASQPPATVWADILNKLGKD	12
SEQID-00298 (AN): nutritive polypeptide naturally produced in Cow (protein, listed as Bos taurus) MGLSDGEWQLVLNAWGKVEADVAGHGQEVLIRLFTGHPETLEKFDKFKHLKTEAEMKASEDLKKHGNTVLTALGGILKKKGHHEAEVKHLAESHANKHKIPVKYLEFISDAIIHVLHAKHPSDFGADAQAAMSKALELFRNDMAAQYKVLGFHG	18
SEQID-00269: nutritive polypeptide (protein) DLKKKLDDDLGTLENLEELKKKLLKDLELLSQRLEELALAYDKLEKTKTRLQQELDDLLLDLDHQ	2460
SEQID-00502: protein of the 168 nutritive polypeptide library (protein, Glycine max, protein of the 168 nutritive polypeptide library) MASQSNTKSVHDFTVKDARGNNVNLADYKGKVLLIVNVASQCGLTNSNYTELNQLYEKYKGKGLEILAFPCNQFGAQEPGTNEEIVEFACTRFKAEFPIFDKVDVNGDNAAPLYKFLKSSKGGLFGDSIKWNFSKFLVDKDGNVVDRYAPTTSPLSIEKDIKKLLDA	36

# return SGF Half-life (t½) for each item in the list
1. SEQID-00510: nutritive polypeptide naturally produced in Turkey, recombinantly expressed in E. coli (protein, Meleagris gallopavo, nutritive polypeptide naturally produced in Turkey, recombinantly expressed in E. coli) MVPIAEKMAEKQEEPSNTQNGEPDNAEEGEGKKKKKVKREDLPPFEIVTGERLPAIFFKFQFRNVEYSSGRNKTFLCYVVETQGKESTTSRGYLEDEHAASHAEIAFFNTILPKCESSLRYNITWYVSSSPCVTCADRISETLRKNKNLRLTIMVGRLFMWEEPEMQAALKKMKSAGCKLRIMKPQDFEYVWQNFVEQEEGEEAKAFVPWEDIQENFQYYEEKLAEILQ
2. SEQID-00284: nutritive polypeptide (protein, listed as Arabidopsis thaliana) KLEHGVHVVSGTPGRVCDMIKRRSLRTRAIKLLILDESDEMLSRGFKDQIYDVYRYLPPDLQVCLVSATLPHEILEMTSKFMTEPVKILVKRDELTLEGIKQFFVAVEKEEWK

Outgoing:
18
60
